Where do the numbers come from? From ChEMBL document CHEMBL1914423.

tested on: SN12C; assay: Anticancer activity against human SN12C cells after 48 hrs by SRB assay; type: functional
Parameter TGI: see the listing below.

| smiles representation | system tested | TGI / µM |
| --- | --- | --- |
| O=C(NCCNc1nccc(-c2c(-c3cccc(O)c3)nc3sccn23)n1)c1ccccc1O | SN12C | 74.9 |
| COc1cccc(-c2nc3sccn3c2-c2ccnc(NCCNC(=O)Nc3cccc(C(F)(F)F)c3)n2)c1 | SN12C | 26.5 |
| O=C(NCCNc1nccc(-c2c(-c3cccc(O)c3)nc3sccn23)n1)c1ccccc1 | SN12C | 38.4 |
| O=C(NCCNc1nccc(-c2c(-c3cccc(O)c3)nc3sccn23)n1)Nc1cccc(C(F)(F)F)c1 | SN12C | 20 |
